# Study system: Isocitrate dehydrogenase [NADP] cytoplasmic (Homo sapiens, UniProt O75874, R132H)
# Assay text: Inhibition of recombinant human IDH1 R132H mutant expressed in Escherichia coli using alpha-KG as substrate preincubated for 5 mins followed by substrate addition measured every 30 secs by microplate reader analysis
# Sequence (O75874 2-414 R132H limits assumed): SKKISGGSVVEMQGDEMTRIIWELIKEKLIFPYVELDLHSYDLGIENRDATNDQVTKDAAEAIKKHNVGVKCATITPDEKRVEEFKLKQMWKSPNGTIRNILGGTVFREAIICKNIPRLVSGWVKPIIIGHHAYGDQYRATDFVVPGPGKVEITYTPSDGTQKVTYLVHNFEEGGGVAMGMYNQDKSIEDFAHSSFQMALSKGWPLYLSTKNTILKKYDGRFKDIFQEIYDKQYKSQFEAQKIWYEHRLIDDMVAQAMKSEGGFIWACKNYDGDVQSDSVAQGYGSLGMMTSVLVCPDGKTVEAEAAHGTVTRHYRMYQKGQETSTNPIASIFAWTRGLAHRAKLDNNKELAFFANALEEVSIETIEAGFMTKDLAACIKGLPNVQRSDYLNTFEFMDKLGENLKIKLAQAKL
Result type: Ki (µM)

CN1C(=O)/C(=C\c2ccc(=O)n(O)c2)NC1=S = 5.9

[P] O=C1NC(=S)N/C1=C/c1ccnc(-c2ccccc2)c1
[Q] CN1C(=O)/C(=C\c2ccc(=O)[nH]c2)N(C)C1=S
[R] CN1C(=O)/C(=C\c2ccc(=O)n(C)c2)NC1=S
[S] COc1ccc(/C=C2/NC(=S)N(C)C2=O)cn1
[T] O=C1NC(=S)S/C1=C/c1ccc(=O)[nH]c1
In: Order the 5 compounds from highest to lowest Ki. Return the labels ranked in the requested order, please.
Out: S, Q, P, T, R
(S: 25 µM, Q: 16.5 µM, P: 5.6 µM, T: 3.1 µM, R: 0.47 µM)

----------
# Study system: Isocitrate dehydrogenase [NADP] cytoplasmic (Homo sapiens, UniProt O75874, R132H)
# Assay text: Inhibition of recombinant human IDH1 R132H mutant expressed in Escherichia coli using alpha-KG as substrate preincubated for 5 mins followed by substrate addition measured every 30 secs by microplate reader analysis
pKi: −log10 of the molar value.
Result type: pKi

[1] O=C1/C(=C\c2ccc(=O)[nH]c2)NC(=S)N1Cc1ccccc1
[2] CN1C(=O)/C(=C\c2cc[nH]c(=O)c2)NC1=S
[3] COc1cc(/C=C2/NC(=S)N(C)C2=O)ccn1
[4] CN1C(=O)/C(=C\c2ccc(=O)[nH]c2)NC1=S
[5] O=C1NC(=S)N/C1=C/c1ccc(=O)[nH]c1
In: Please rank everything listed above by pKi, with the minimum value first. Return the labels ranked in the requested order, please.
Out: 2, 1, 3, 4, 5

----------
# Study system: Isocitrate dehydrogenase [NADP] cytoplasmic (Homo sapiens, UniProt O75874, R132H)
# Assay text: Binding affinity to recombinant human IDH1 R132H mutant expressed in Escherichia coli by isothermal titration calorimetric analysis in absence of NADPH
# Sequence (O75874 whole entry R132H): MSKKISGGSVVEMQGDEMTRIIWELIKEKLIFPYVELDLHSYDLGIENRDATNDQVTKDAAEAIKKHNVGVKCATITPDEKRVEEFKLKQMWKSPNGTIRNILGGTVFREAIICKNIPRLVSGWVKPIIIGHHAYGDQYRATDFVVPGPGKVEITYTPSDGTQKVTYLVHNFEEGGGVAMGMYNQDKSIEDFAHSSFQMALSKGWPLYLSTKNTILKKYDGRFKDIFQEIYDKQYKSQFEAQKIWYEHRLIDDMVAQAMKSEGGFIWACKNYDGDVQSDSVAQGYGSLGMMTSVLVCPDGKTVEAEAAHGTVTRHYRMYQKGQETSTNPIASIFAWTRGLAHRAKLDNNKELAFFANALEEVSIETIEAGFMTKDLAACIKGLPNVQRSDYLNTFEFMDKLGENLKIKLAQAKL
Result type: pKd
Value format note: pKd is -log10 of concentration (mol/L); just state the number.

In: Look at this compound and give its reported pKd. O=C1NC(=S)N/C1=C/c1ccc(=O)[nH]c1
Out: 5.23

----------
compounds and their reported EC50
# Tested on: A549
# Assay text: Cytotoxicity against human A549 cells assessed as growth inhibition after 48 to 96 hrs by MTT assay
# Format: functional, cell-based

In: Look at this compound and give its reported EC50. CN1C(=O)/C(=C\c2ccc(=O)[nH]c2)NC1=S
Out: > 50 µM

In: Look at this compound and give its reported EC50. O=C1NC(=S)N/C1=C/c1ccc(=O)[nH]c1
Out: > 50 µM

In: Look at this compound and give its reported EC50. Cc1ccccc1C(C(=O)NC1CCCCC1)N(C(=O)Cn1ccnc1C)c1cccc(F)c1 (stereo not drawn)
Out: > 50 µM

----------
# Study system: Isocitrate dehydrogenase [NADP] cytoplasmic (Homo sapiens, UniProt O75874, R132H)
# Assay text: Inhibition of recombinant human IDH1 R132H mutant expressed in Escherichia coli using alpha-KG as substrate preincubated for 5 mins followed by substrate addition measured every 30 secs by microplate reader analysis
Result type: Ki (µM)

See these solved cases before continuing.
CN1C(=O)/C(=C\c2ccc(-c3ccc(F)c(F)c3)o2)NC1=S = 3.2
COc1cccc(/C=C2/NC(=S)N(C)C2=O)n1 = 34.2
CN1C(=O)/C(=C\c2ccc(=O)n(Cc3ccccc3)c2)NC1=S = 4.6
COc1ccc(/C=C2/NC(=S)N(C)C2=O)c[n+]1[O-] = 4.3
O=C1/C(=C\c2ccc(O)c(O)c2)NC(=S)N1Cc1ccc(O)cc1 = 13.4
COc1ncccc1/C=C1/NC(=S)N(C)C1=O = 25.3
CCN1C(=O)/C(=C\c2ccc(OC)nc2)NC1=S = 9.2
O=C1/C(=C\c2ccc(O)c(O)c2)NC(=S)N1c1ccccc1 = 16.7
CCN1C(=O)/C(=C\c2ccc(=O)[nH]c2)NC1=S = 3.6

[1] COc1ccc(/C=C2/NC(=S)NC2=O)cn1
[2] CN1C(=O)/C(=C\c2cccc(=O)[nH]2)NC1=S
In: Hey, between 1 and 2 which has a smaller measured Ki? Reply with the label of the item you choose.
Out: 1
(1: 7.8 µM, 2: 11.3 µM)

----------
molecules and their reported pKi
# Study system: Isocitrate dehydrogenase [NADP] cytoplasmic (Homo sapiens, UniProt O75874, R132H)
# Assay text: Inhibition of recombinant human IDH1 R132H mutant expressed in Escherichia coli using alpha-KG as substrate preincubated for 5 mins followed by substrate addition measured every 30 secs by microplate reader analysis
pKi: −log10 of the molar value.

See these solved cases before continuing.
COc1ccc(/C=C2/NC(=S)N(c3ccccc3)C2=O)cc1OC = < 4.30
COc1ccc(/C=C2/NC(=S)N(CC(=O)O)C2=O)cn1 = < 4.30
O=C(O)CN1C(=O)/C(=C\c2ccc(=O)[nH]c2)NC1=S = < 4.30

In: Give pKi (Isocitrate dehydrogenase [NADP] cytoplasmic (Homo sapiens, UniProt O75874, R132H)) of the following molecule: CN1C(=O)/C(=C\c2ccncc2)NC1=S
Out: < 4.30

In: Give pKi (Isocitrate dehydrogenase [NADP] cytoplasmic (Homo sapiens, UniProt O75874, R132H)) of the following molecule: COc1ccc(/C=C2/NC(=S)N(Cc3ccccc3)C2=O)cc1OC
Out: < 4.30

In: Give pKi (Isocitrate dehydrogenase [NADP] cytoplasmic (Homo sapiens, UniProt O75874, R132H)) of the following molecule: O=C1NC(=S)N/C1=C/c1ccnc(Br)c1
Out: < 4.30

----------
# Study system: Isocitrate dehydrogenase [NADP] cytoplasmic (Homo sapiens, UniProt O75874, R132H)
# Assay text: Inhibition of recombinant human IDH1 R132H mutant expressed in Escherichia coli using alpha-KG as substrate preincubated for 5 mins followed by substrate addition measured every 30 secs by microplate reader analysis
Result type: Ki

CN1C(=O)/C(=C\c2ccc[nH]c2=O)NC1=S = > 50 µM
COc1ccc(/C=C2/SC(=S)NC2=O)cn1 = > 50 µM

# next compound below
In: Look at this compound and give its reported Ki. COc1ccc(CN2C(=O)/C(=C\c3ccc(OC)c(OC)c3)NC2=S)cc1
Out: > 50 µM
